Molecular target: UniProt P07900
Assay: Inhibition of FITC3-labeled PU-H71 binding to recombinant HSP90alpha (unknown origin) after 24 hrs by fluorescence polarization assay
pIC50: −log10 of the molar value.
READOUT TYPE: pIC50

SMILES: Nc1nc(Cl)c2cc(C(=O)O)n(Cc3ccc4c(c3)OCO4)c2n1
RELATION OPERATOR: <
OBSERVED: 5.00
--
SMILES: Nc1nc(Cl)c2cnn(Cc3cc4c(cc3Br)OCO4)c2n1
RELATION OPERATOR: =
OBSERVED: 6.16
--
SMILES: Nc1nc(Cl)c2cnc(Cc3ccc4c(c3)OCO4)n2n1
RELATION OPERATOR: <
OBSERVED: 5.00
--
SMILES: Nc1nc(Cl)c2cnn(Cc3ccc4c(c3)OCO4)c2n1
RELATION OPERATOR: =
OBSERVED: 5.05
--
SMILES: COc1c(C)cnc(Cn2ncc3c(Cl)nc(N)nc32)c1C
RELATION OPERATOR: =
OBSERVED: 7.01
